Measured Target: cAMP-dependent protein kinase catalytic subunit alpha (Homo sapiens) (UniProt P17612)
Run Parameters: at 1 µM
Property Label: residual activity (%)
# number only, unit % dropped from output

Illustrative cases are given below, each with its answer.
[
  {
    "Compound": "O=C1Nc2ccc3ncsc3c2/C1=C/c1c[nH]cn1",
    "Value": 25
  },
  {
    "Compound": "COc1cc(OC)c(/C=C2\\C(=O)Nc3ccccc32)c(OC)c1",
    "Value": 100
  },
  {
    "Compound": "COC(=O)[C@@]1(O)C[C@H]2O[C@]1(C)n1c3ccccc3c3c4c(c5c6ccccc6n2c5c31)C(=O)NC4",
    "Value": 7
  },
  {
    "Compound": "O=[N+]([O-])/C=C/c1ccc2c(c1)OCO2",
    "Value": 124
  },
  {
    "Compound": "COc1cc2ncnc(Nc3ccc(OCc4ccccc4)cc3)c2cc1OC",
    "Value": 88
  }
]

Turning now to a further record.
### Prompt Print cAMP-dependent protein kinase catalytic subunit alpha (Homo sapiens) (UniProt P17612) residual activity for C[S+]([O-])c1ccc(-c2nc(-c3ccc(F)cc3)c(-c3ccncc3)[nH]2)cc1 (stereo unspecified) .
### Response 105

* * *

Below is a list of entries, each paired with its recorded residual activity value.
Measured Target: Receptor-type tyrosine-protein kinase FLT3 (Homo sapiens) (UniProt P36888)
Sequence (P36888 whole entry): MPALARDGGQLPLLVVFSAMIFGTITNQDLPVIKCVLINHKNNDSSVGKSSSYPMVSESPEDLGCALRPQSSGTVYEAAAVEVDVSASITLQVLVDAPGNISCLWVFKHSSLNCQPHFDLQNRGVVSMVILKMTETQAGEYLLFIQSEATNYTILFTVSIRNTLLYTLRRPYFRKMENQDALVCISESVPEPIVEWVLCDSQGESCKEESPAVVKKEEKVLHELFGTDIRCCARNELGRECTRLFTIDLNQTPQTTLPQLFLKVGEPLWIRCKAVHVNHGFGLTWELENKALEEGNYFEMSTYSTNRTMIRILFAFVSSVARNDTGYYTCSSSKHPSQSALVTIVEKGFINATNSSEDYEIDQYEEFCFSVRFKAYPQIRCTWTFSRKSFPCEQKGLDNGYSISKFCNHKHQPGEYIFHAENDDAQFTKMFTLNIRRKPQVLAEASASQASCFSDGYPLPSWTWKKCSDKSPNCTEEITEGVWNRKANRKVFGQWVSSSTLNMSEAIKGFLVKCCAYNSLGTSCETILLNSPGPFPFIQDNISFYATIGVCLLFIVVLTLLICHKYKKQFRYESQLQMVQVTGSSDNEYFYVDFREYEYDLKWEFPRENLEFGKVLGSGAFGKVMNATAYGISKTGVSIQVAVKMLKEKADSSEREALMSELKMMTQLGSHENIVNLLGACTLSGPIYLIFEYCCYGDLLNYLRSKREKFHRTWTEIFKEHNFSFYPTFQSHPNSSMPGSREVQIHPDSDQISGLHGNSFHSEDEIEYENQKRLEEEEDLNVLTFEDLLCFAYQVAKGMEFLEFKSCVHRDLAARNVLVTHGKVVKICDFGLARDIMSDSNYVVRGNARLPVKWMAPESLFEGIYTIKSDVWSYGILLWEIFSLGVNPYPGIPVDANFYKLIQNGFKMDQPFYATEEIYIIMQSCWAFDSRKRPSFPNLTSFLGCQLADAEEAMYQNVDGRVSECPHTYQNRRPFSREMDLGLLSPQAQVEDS
Run Parameters: at 10 µM
Write the answer as a number in %, unit excluded.

Guide cases for residual activity, answers given:
[
  {
    "Compound": "O=[N+]([O-])/C=C/c1ccc2c(c1)OCO2",
    "Measured Target": "Receptor-type tyrosine-protein kinase FLT3 (Homo sapiens) (UniProt P36888)",
    "residual activity / %": 69
  },
  {
    "Compound": "CC(C)[C@H](CO)Nc1nc(Nc2cccc(Cl)c2)c2ncn(C(C)C)c2n1",
    "Measured Target": "Receptor-type tyrosine-protein kinase FLT3 (Homo sapiens) (UniProt P36888)",
    "residual activity / %": 2
  },
  {
    "Compound": "COc1ccc2c(c[n+](C)c3c4cc5c(cc4ccc23)OCO5)c1OC",
    "Measured Target": "Receptor-type tyrosine-protein kinase FLT3 (Homo sapiens) (UniProt P36888)",
    "residual activity / %": 75
  }
]

### Prompt # return recorded residual activity for input COc1ccc2c(c1)/C(=C/c1cnc[nH]1)C(=O)N2
### Response 0

### Prompt Read off the recorded residual activity for CN[C@@H]1C[C@H]2O[C@@](C)([C@@H]1OC)n1c3ccccc3c3c4c(c5c6ccccc6n2c5c31)C(=O)NC4
### Response -1

### Prompt Give the reported residual activity for this compound. C[S+]([O-])c1ccc(-c2nc(-c3ccc(F)cc3)c(-c3ccncc3)[nH]2)cc1 (stereo not drawn)
### Response 82

### Prompt # return recorded residual activity for input COc1cc(OC)c(/C=C2\C(=O)Nc3ccccc32)c(OC)c1
### Response 72

### Prompt Provide residual activity value for the following compound: N/C(=N\[N+](=O)[O-])N/N=C\c1ccc(-c2cccc([N+](=O)[O-])c2)o1
### Response 48

* * *

Measured Target: Interleukin-1 receptor-associated kinase 4 (Homo sapiens) (UniProt Q9NWZ3)
Sequence (Q9NWZ3 whole entry): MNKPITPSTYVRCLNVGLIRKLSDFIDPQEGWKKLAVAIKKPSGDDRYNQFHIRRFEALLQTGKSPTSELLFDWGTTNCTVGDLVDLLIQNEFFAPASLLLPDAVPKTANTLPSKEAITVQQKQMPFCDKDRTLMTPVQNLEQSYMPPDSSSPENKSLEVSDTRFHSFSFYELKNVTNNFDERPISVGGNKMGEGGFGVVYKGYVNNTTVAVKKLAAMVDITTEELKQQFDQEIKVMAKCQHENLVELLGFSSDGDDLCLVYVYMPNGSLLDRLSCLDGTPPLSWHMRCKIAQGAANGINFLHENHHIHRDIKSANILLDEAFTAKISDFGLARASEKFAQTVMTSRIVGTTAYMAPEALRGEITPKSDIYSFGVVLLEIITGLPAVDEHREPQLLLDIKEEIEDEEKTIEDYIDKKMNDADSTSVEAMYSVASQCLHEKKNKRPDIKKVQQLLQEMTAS
Run Parameters: at 1 µM
Property Label: residual activity (%)
Entry rule: numbers only, all in %.

The cases that follow already have their residual activity on record.
[
  {
    "Compound": "COc1cc(OC)c(/C=C2\\C(=O)Nc3ccccc32)c(OC)c1",
    "residual activity, %": 81
  },
  {
    "Compound": "CC(C)[C@H](CO)Nc1nc(Nc2cccc(Cl)c2)c2ncn(C(C)C)c2n1",
    "residual activity, %": 45
  },
  {
    "Compound": "N/C(=N\\[N+](=O)[O-])N/N=C\\c1ccc(-c2cccc([N+](=O)[O-])c2)o1",
    "residual activity, %": 100
  },
  {
    "Compound": "O=C1Nc2ccc3ncsc3c2/C1=C/c1c[nH]cn1",
    "residual activity, %": 41
  },
  {
    "Compound": "COC(=O)[C@@]1(O)C[C@H]2O[C@]1(C)n1c3ccccc3c3c4c(c5c6ccccc6n2c5c31)C(=O)NC4",
    "residual activity, %": -2
  },
  {
    "Compound": "O=c1[nH]c2ccccc2n1C1CCN(Cc2ccc(-c3nc4cc5[nH]cnc5cc4nc3-c3ccccc3)cc2)CC1",
    "residual activity, %": 106
  },
  {
    "Compound": "CC(C)(C)c1cc(C=C(C#N)C#N)cc(Br)c1O",
    "residual activity, %": 112
  },
  {
    "Compound": "O=C1c2ccccc2-c2nc3nnnn3nc21",
    "residual activity, %": 129
  }
]

### Prompt Tell me its residual activity on Interleukin-1 receptor-associated kinase 4 (Homo sapiens) (UniProt Q9NWZ3): c1cc(-c2cnn3cc(-c4ccc(OCCN5CCCCC5)cc4)cnc23)ccn1
### Response 81

### Prompt Give reported residual activity for COc1cc2ncnc(Nc3ccc(OCc4ccccc4)cc3)c2cc1OC (Interleukin-1 receptor-associated kinase 4 (Homo sapiens) (UniProt Q9NWZ3))
### Response 127

### Prompt Specify the recorded residual activity for C[S+]([O-])c1ccc(-c2nc(-c3ccc(F)cc3)c(-c3ccncc3)[nH]2)cc1 (stereo unspecified) , system: Interleukin-1 receptor-associated kinase 4 (Homo sapiens) (UniProt Q9NWZ3).
### Response 113

Values were extracted from ChEMBL document CHEMBL2218924.
